src = patent US20240116985A1

Target: full-length beta-Catenin (Uniprot ID P35222) (Homo sapiens (Human)) (UniProt P35222)
Assay: fluorescence polarization competition; full-length beta-catenin, competitor 5FAM-TCF4(10-53) probe
Starred links: 1 amine or outer side, 2 acyl side, 3 side chain; linkers in the order of their positions; H or OH if unused. Positions of bridges follow the written chain, without caps; N, C: chain ends. Non-standard residues stand in square brackets, D forms with d. Primed or numbered codes have the meaning given here. PyrS2″ = (S)-3-amino-1-((pent-4-en-1-yloxy)carbonyl)pyrrolidine-3-carboxylic acid (stapling residue), C=CCCCOC(=O)N1CC[C@@](N[*:1])(C(=O)[*:2])C1; B5(4) = 2,2-bis(4-pentenyl)glycine = 2-amino-2-(pent-4-en-1-yl)hept-6-enoic acid (stitching residue), C=CCCCC(CCCC=C)(N[*:1])C(=O)[*:2]; B5(5) = 2,2-bis(4-pentenyl)glycine, 2-amino-2-(pent-4-en-1-yl)hept-6-enoic acid (stitching residue), C=CCCCC(CCCC=C)(N[*:1])C(=O)[*:2]; SeN = (S)-5-(((allyloxy)carbonyl)(methyl)amino)-2-amino-2-methylpentanoic acid, C=CCOC(=O)N(C)CCC[C@](C)(N[*:1])C(=O)[*:2]; B5(13) = 2-amino-2-(pent-4-en-1-yl)hept-6-enoic acid (two alkene chains), C=CCCCC(CCCC=C)(N[*:1])C(=O)[*:2]; EtGA = (S)-2-amino-3-((carboxymethyl)(ethyl)amino)propanoic acid, CCN(CC(=O)[*:3])C[C@H](N[*:1])C(=O)[*:2]; Phe(2-Cl) = N[C@@H](Cc1ccccc1Cl)C(=O)O; Bta = N[C@@H](Cc1csc2ccccc12)C(=O)O; αAllylPro = C=CC[C@@]1(C(=O)O)CCCN1; tBuAla = CC(C)(C)C[C@H](N)C(=O)O; 3Thi = N[C@@H](Cc1ccsc1)C(=O)O; Cha = N[C@@H](CC1CCCCC1)C(=O)O; S8 = C=CCCCCCC[C@](C)(N)C(=O)O; Thr(ol) = C[C@@H](O)[C@H](N)CO

{"binder": "Ac-[αAllylPro]DI[B5(5)]D[EtGA]AAFQ[S8]F[Bta]Q-NH2 (staple 1-4, 4-11; not fully specified; printed as Ac-PL3-Asp-Ile-B5-Asp-EtGa-Ala-Ala-Phe-Gln-S8-Phe-BztA-Gln-NH2) [I-608]", "quantity unit": "nM", "EC50": 211}
{"binder": "Ac-[αAllylPro]D[tBuAla][B5(5)]DDAAFF[PyrS2″][Phe(2-Cl)][Bta][Thr(ol)] (staple 1-4, 4-11) [I-1311]", "quantity unit": "nM", "EC50": 38}
{"binder": "Ac-[αAllylPro]D[tBuAla][B5(13)]DDAAFN[SeN][3Thi][Bta]H-NH2 (staple 1-4, 4-11) [I-773]", "quantity unit": "nM", "EC50": 167}
{"binder": "Ac-[αAllylPro]D[Cha][B5(4)]DEAAFL[PyrS2″][Phe(2-Cl)][Bta]Q-NH2 (staple 1-4, 4-11; also: earlier-eluting HPLC peak staple isomer composition) [I-1077]", "quantity unit": "nM", "EC50": 324}
